Let's look at some compounds and their measured Ki.
Target: DLK (Homo sapiens, UniProt Q12852)
Sequence (Q12852 1-520): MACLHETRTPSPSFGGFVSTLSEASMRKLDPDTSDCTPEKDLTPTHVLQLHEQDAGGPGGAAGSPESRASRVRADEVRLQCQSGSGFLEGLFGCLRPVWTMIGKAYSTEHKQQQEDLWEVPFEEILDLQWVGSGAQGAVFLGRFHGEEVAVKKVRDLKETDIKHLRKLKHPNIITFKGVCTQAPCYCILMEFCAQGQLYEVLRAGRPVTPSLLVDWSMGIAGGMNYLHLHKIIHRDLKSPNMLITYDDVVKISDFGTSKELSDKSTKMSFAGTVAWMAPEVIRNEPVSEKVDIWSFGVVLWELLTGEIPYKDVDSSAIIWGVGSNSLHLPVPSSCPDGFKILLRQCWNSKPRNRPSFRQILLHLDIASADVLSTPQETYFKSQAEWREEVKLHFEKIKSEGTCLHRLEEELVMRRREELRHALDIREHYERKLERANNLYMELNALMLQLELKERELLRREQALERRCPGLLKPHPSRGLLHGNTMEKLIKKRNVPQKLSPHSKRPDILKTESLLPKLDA
Conditions: read-out: DLK (Ki) μM; TR-FRET; 5 nM GST-tagged DLK (catalytic domain aa 1-520), 40 nM HIS-MKK4 K131M substrate, 30 μM ATP, 60 minutes
MEASURED_QUANTITY: Ki (µM)

compound="CC(C)n1nc(-c2cnc(N)c(Cl)c2)cc1[C@H]1[C@@H]2CN(C3COC3)C[C@@H]21 [Compound 140]" measured_quantity=Ki uom=µM numeric_readout=0.04
compound="COc1cc(-c2cc([C@H]3[C@@H]4CN(C5COC5)C[C@@H]43)n(C(C)C)n2)cnc1N [Compound 145]" measured_quantity=Ki uom=µM numeric_readout=0.0074
compound="CC(C)n1nc(-c2cnc3[nH]cc(C#N)c3c2)cc1C1CCN(CC(F)(F)F)CC1 [Compound 46]" measured_quantity=Ki uom=µM numeric_readout=0.028
compound="CC(C)n1nc(-c2cnc(N)c(C(F)(F)F)c2)cc1C1CN(C2COC2)C1 [Compound 60]" measured_quantity=Ki uom=µM numeric_readout=0.027
compound="FC(F)(F)c1c[nH]c2ncc(-c3cc(C4CN(C5COC5)C4)n(C4CCOC4)n3)cc12 (centres unmarked) [Compound 55]" measured_quantity=Ki uom=µM numeric_readout=0.019
compound="CCOc1cc(-c2cc(C3CCN(C4COC4)CC3)n(C3CCC(F)(F)C3)n2)cnc1N (centres unmarked) [Compound 85]" measured_quantity=Ki uom=µM numeric_readout=0.99
compound="Nc1ncc(-c2cc([C@H]3[C@@H]4CN(C5COC5)C[C@@H]43)n(C3CCC3)n2)cc1C1CC1 [Compound 153]" measured_quantity=Ki uom=µM numeric_readout=0.011
compound="CC(=O)N1CCC(c2cc(-c3cnc4[nH]cc(C)c4c3)nn2C)CC1 [Compound 47]" measured_quantity=Ki uom=µM numeric_readout=0.047
